Known ε of a selection of compounds
# assay.notes: Spectroscopic measurements (absorption, emission, quantum yield, extinction coefficient)
# Type: physicochemical
# run.conditions: extinction coefficient, BDNCA library; in M-1 cm-1 (unit assumed)

smiles.notation: CCOc1ccccc1/C=C/c1cc(C)c2n1[B-](F)(F)[N+]1=CC=CC1=C2c1ccc(NC(=O)CCl)cc1
ε: 63,982
--
smiles.notation: CC1=CC(/C=C/C=C/c2ccco2)=[N+]2C1=C(c1ccc(NC(=O)CCl)cc1)c1cccn1[B-]2(F)F
ε: 13,730
--
smiles.notation: Cc1cc(/C=C/c2cc(Cl)ccc2Cl)n2c1C(c1ccc(NC(=O)CCl)cc1)=C1C=CC=[N+]1[B-]2(F)F
ε: 42,288
--
smiles.notation: Cc1cc(/C=C/c2ccc3c(c2)OC(F)(F)O3)n2c1C(c1ccc(NC(=O)CCl)cc1)=C1C=CC=[N+]1[B-]2(F)F
ε: 27,735

meta.source: patent US9423396B2
